Each recorded value in this set is attributed to patent US11203610B2.

assay_target: AQ STING (G230A-R293Q) (Homo sapiens, UniProt Q86WV6, G230A/H232R/R293Q)
Construct: truncated human WT STING or AQ STING (amino acid residues 140-343); 8xHis (N, cleaved yes); SUMO (N, cleaved yes); made in house; host or cells: E. coli Rosetta-gami B (DE3)
Sequence (Q86WV6 140-343 G230A/H232R/R293Q): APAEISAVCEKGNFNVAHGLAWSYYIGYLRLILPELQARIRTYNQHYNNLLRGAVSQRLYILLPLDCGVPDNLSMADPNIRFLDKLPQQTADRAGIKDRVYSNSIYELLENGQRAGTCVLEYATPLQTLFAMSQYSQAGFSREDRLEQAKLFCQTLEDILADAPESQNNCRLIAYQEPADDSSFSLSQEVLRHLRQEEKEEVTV
method_description: Differential Scanning Fluorimetry with AQ STING
Format: binding
measurement_setup: thermal shift vs STING apoprotein; 150 μM CDN; 0.1 mg/ml truncated human AQ STING; SYPRO Orange; read-out: DSF ΔTm (° C.) AQ STING
readout_name: ΔTm at 150 µM (°C)

a: Cc1cn([C@@H]2O[C@@H]3COP(=O)(O)O[C@@H]4[C@@H](OCP(=O)(O)O[C@@H]2[C@@H]3O)O[C@@H](n2cnc3c(N)ncnc32)[C@@H]4O)c2nc(N)[nH]c(=O)c12
b: Nc1nc2c(ncn2[C@@H]2O[C@@H]3COP(=O)(O)O[C@@H]4[C@@H](OCP(=O)(O)O[C@@H]2C3)O[C@@H](n2cnc3c(N)ncnc32)[C@@H]4O)c(=O)[nH]1
Between a and b , whose measured ΔTm at 150 µM reads higher? Label of pick, please. b
